Tested on: HS 578T breast
Assay: NCI tumour cell line growth inhibition, 48 h
log10(TGI) values, listed per item
Parameter value (number): base-10 log of TGI in µM.

Compound	Measured Quantity	Number
CC[P+](C#Cc1ccccc1)(c1ccccc1)c1ccccc1	log10(TGI)	0.89
Cc1ncc(NC(=O)c2ccc(CN3CCN(C)CC3)c(C(F)(F)F)c2)cc1Nc1nccc(-c2cccnc2)n1	log10(TGI)	1.66
COc1ccc(NC2=C(Br)C(=O)C(C)=C(C)C2=O)cc1	log10(TGI)	1.76
Cc1ccc(-c2nc(C(Cl)Cl)n3nc(-c4ccccc4)cc3n2)cc1	log10(TGI)	0.60
CCCCCCNc1nc(NCCCCCC)c2[nH]c(NCCCCCC)nc2n1	log10(TGI)	0.99

Now look at this one.
Asked: Entry CC/C=C\C/C=C\C/C=C\CCCCCCCC(=O)OC(COC(=O)CCCCCCCCCCCCCCCCC)COC1OC(CO)C(O)C(O)C1O (stereo not given) : reported log10(TGI) = ?
Given back: 1.27

###

Below, each entry is listed alongside its reported TGI.
System: SNB-78 CNS
Test: NCI tumour cell line growth inhibition, 48 h

Recorded TGI, per entry:
>>> print(df.to_string())
                                   molecule  measured_on    result
0    CCOc1cccc2nc3cccc(C(=O)NCCN(C)C)c3nc12   SNB-78 CNS    9.3 µM
1  CCOC(=O)Cc1nc(/C(C#N)=C/c2ccco2)[nH]c(=O)c1C#N   SNB-78 CNS   93.9 µM
2  NS(=O)(=O)c1ccc(NC(=O)c2cccc3c(=O)c4ccccc4[nH]c23)cc1   SNB-78 CNS  > 100 µM
3  CC(O)CN1C(=O)NC(Cc2ccccc2)C1=O (stereo not given)   SNB-78 CNS  > 100 µM

Asked: What measured TGI goes with Cc1cc(C)nc(NS(=O)(=O)c2ccc(Nc3c4ccccc4nc4c(C(=O)N5CCN(CCOS(C)(=O)=O)CC5)ccc(Cl)c34)cc2)n1 ?
Given back: > 100 µM

###

System: RXF 393 renal
Assay: NCI tumour cell line growth inhibition, 48 h; in the data active = GI50 below about 0.43 µM; inactive = the rest
# output must be one of Y (active), N (inactive)

Reference set (5 entries):
                                   compound  label
0  N#Cc1c(-c2ccccc2)nc2c(c(-c3ccccc3)nn2-c2ccccc2)c1-c1ccc(O)cc1      N
1  O=C1c2c(c3c4ccc(Br)cc4oc3c3[nH]c4ccccc4c23)C(=O)N1O      N
2  CNC(=O)c1ccc(-c2cnc3ncc(Cc4ccc5ncccc5c4)n3n2)cc1F      N
3  CCN(CCO)CCNc1ccc(C)c2sc3cc(Cl)ccc3c(=O)c12      N
4  CN(C)CCNC(=O)Nc1c(C#N)[n+]([O-])c2cc(Cl)c(Cl)cc2[n+]1[O-]      N

Asked: Per the assay record, what outcome was assigned to O=P(O)(O)C(O)(Cn1ccnc1)P(=O)(O)O ?
Given back: N

Asked: I'd appreciate the recorded outcome for COc1ccc(C2C(C#N)=C(N)OC3=C2CCCc2ccc(F)cc23)cc1OC (stereo unspecified) from this test.
Given back: N

Asked: Lab log entry: O=C(Nc1cc(-c2ccccc2)[nH]n1)c1ccc(Cl)cc1 — outcome as called in the assay?
Given back: N

Asked: What did this assay record as the result for COC(=O)c1c(O)ccc2[nH]c(C)c(C#N)c12 ?
Given back: N

Asked: Assay result, entry C=C1C(=O)O[C@H]2[C@H]1CC/C(COC(=O)c1cc3cc(OC)ccc3[nH]1)=C\CC[C@@]1(C)O[C@@H]21 — outcome?
Given back: N

Asked: I would be grateful if you could indicate the recorded call for O=C1c2ccccc2-c2c1c1ccccc1c(=O)n2CCNCCCNCCn1c2c(c3ccccc3c1=O)C(=O)c1ccccc1-2 .
Given back: Y
